- tgt: pp60^c-src (Homo sapiens, UniProt P12931)
- Sequence (P12931 whole entry): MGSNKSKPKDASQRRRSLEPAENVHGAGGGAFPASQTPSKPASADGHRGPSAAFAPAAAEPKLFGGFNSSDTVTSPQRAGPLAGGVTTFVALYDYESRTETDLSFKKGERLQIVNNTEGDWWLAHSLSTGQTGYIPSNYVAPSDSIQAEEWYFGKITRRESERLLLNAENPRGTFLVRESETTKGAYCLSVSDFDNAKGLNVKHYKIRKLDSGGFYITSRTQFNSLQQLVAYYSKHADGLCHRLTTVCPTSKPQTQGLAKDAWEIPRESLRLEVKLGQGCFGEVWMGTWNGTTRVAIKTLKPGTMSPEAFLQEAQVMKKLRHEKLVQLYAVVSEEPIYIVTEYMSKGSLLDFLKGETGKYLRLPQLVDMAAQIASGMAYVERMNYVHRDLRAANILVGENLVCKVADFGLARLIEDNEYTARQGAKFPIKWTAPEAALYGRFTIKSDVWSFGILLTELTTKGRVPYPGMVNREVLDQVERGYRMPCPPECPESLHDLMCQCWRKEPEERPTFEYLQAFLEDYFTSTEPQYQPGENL
- protocol-description: Cellular Mimetic Src assay (RR-SRC phosphorylation)
assay-metric: IC50 (µM)

>>> reading("O=C(Nc1cccc(O)c1)c1cc2ccc(O)cc2cc1O [Compound 43-meta]")
18

I: O=S(=O)(O)Nc1ccc2ccccc2c1 [Compound 28]
II: O=C(Nc1cccc(O)c1)c1cc2cccc(O)c2cc1O [Compound 45]
III: OB(O)c1ccc2ccccc2c1 [Compound 27, 2-naphthalene boronic acid]
In: Would you mind ranking these molecules by ascending IC50? Reply with the labels, ordered as the question asks.
Out: II, III, I
(II: 170 µM, III: 950 µM, I: 1600 µM)

----------
- tgt: PKA (Homo sapiens, UniProt P17612)
- protocol-description: Literature Mimetic PKA assay
- Type: biochemical
- condition-info: Literature Mimetic (L) conditions; pentapeptide PKA inhibitors; read-out: Ki
Starred links: 1 amine or outer side, 2 acyl side, 3 side chain; linkers in the order of their positions; H or OH if unused. Non-standard residues stand in square brackets, D forms with d. Residues, ends and D or L forms follow the SMILES beside them. X6 = NS(=O)(=O)CC[C@H](N[*:1])C(=O)[*:2]
assay-metric: Ki (µM)
Expressed in µM, but write only the number.

In: State recorded Ki with PKA (Homo sapiens, UniProt P17612), entry CC[C@H](C)[C@H](NC(=O)[C@H](CCS(N)(=O)=O)NC(=O)CNC(=O)[C@H](CCCNC(=N)N)NC(=O)[C@H](CCCNC(=N)N)NC(C)=O)C(N)=O [Compound 7] (Ac-RRG[X6]I-NH2) , no comment.
Out: 300

----------
- tgt: pp60^c-src (Homo sapiens)
- protocol-description: Cellular Mimetic Src assay (RR-SRC phosphorylation)
- condition-info: read-out: % Inhibition of 2 mM RR-src at Inhibitor Concentration (100 μM)
assay-metric: inhibition at 100 µM (%)

>>> reading("COC(=O)c1cc2ccc(O)cc2cc1O")
47
>>> reading("OB(O)c1cccc(-c2ccccc2)c1")
14
>>> reading("OB(O)c1ccc(-c2ccccc2)cc1")
13
>>> reading("O=C(Nc1cccc(O)c1)c1cc2cccc(O)c2cc1O")
51

A: OB(O)c1ccc2ccccc2c1
B: N=c1oc2c(O)cccc2cc1C(=O)Nc1cccc(O)c1 [Compound 50, reference compound]
In: Pick one, A or B : lowest reported inhibition at 100 µM. Identify your selection by its label.
Out: A
(A: 13%, B: 30%)

----------
- tgt: pp60^c-src (Homo sapiens)
- protocol-description: Cellular Mimetic Src assay (RR-SRC phosphorylation)
- condition-info: Ki, Table IV
assay-metric: Ki (µM)
Expressed in µM, but write only the number.

In: Report measured Ki; entry is O=S(=O)(O)Nc1ccc2ccccc2c1 [Compound 28]
Out: 963

----------
- tgt: p56 lck (Homo sapiens)
- Sequence (P06239 whole entry, species assumed): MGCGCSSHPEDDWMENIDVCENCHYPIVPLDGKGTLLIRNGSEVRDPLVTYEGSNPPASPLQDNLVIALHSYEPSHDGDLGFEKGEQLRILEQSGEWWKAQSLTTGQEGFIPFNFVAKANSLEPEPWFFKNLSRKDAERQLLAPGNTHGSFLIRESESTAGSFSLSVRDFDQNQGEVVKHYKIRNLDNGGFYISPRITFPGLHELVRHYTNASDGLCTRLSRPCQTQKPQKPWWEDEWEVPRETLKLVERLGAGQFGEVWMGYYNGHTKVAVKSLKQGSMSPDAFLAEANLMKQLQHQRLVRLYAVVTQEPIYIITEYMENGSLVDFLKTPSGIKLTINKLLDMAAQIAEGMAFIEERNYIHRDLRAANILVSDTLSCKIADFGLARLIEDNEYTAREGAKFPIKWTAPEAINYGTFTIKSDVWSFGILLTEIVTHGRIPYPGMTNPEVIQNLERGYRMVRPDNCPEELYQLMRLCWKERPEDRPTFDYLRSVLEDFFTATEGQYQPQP
- protocol-description: p56 lck inhibition
- Assay type: biochemical
- condition-info: % inhibition at 10 micromolar compound
assay-metric: p56 LcK @ 10 μm (%)

>>> reading("COc1cc(OC)c(CNC(=O)c2cc3cc(F)ccc3[nH]2)c(OC)c1 [Compound 1rr]")
12
>>> reading("O=C(Nc1ccccc1O)c1cc2cc(F)ccc2[nH]1 [Compound 1n]")
12
>>> reading("O=C(Nc1cc(O)cc(O)c1)c1cc2cc(F)ccc2[nH]1 [Compound 1r]")
11
>>> reading("O=C(NCc1ccc(CO)cc1)c1cc2cc(F)ccc2[nH]1 [Compound 1oooo]")
10
